Each item that follows carries a reported pEC50.
Biological target: aromatase (Rattus norvegicus, UniProt P22443)
Construct: ovarian microsomes are obtained from rats treated with pregnant mares serum gonadotropin; from tissue; host or cells: ovarian microsomes from rats treated with pregnant mares serum gonadotropin
Sequence (P22443 whole entry): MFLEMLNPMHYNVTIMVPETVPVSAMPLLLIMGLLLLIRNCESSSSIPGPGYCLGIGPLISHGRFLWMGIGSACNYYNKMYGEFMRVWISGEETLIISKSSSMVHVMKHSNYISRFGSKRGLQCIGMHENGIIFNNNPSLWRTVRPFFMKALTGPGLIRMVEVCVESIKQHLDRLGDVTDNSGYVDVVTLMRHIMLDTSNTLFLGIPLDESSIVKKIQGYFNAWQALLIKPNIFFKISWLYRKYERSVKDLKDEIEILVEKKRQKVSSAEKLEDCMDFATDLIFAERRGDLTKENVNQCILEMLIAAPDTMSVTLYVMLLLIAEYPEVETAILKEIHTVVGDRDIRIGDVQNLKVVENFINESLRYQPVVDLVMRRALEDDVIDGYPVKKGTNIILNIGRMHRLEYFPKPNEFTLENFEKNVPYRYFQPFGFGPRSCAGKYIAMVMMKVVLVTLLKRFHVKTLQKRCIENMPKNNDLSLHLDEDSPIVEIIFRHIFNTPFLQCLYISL
Assay: Aromatase inhibition in the rat ovarian microsome assay
Assay type: biochemical
Field pEC50 (float): negative decimal logarithm of the concentration in molar.

Solved entries:
CCCCCCN(Cc1cccnc1)c1ccc(Cl)cc1Cl: 5.92
C#CCN(Cc1cccnc1)c1ccc(Cl)cc1Cl: 6.78

Query compound follows.
Look up pEC50 for this compound: `CC=CCN(Cc1cccnc1)c1ccc(Cl)cc1Cl`
6.44

* * *

Molecular target: aromatase (Rattus norvegicus, UniProt P22443)
Construct: ovarian microsomes are obtained from rats treated with pregnant mares serum gonadotropin; from tissue; host or cells: ovarian microsomes from rats treated with pregnant mares serum gonadotropin
Experiment: Aromatase inhibition in the rat ovarian microsome assay
Type: biochemical
Settings: rat ovarian microsomes; substrate 4-androstene-3,17-dione 0.1 μM; [3H]-H2O release
experimentalReadout: EC50 (nM)
Only the number, expressed in nM, is required.

Solved entries:
CCCCN(c1ccc(Cl)cc1)C(c1ccccc1)c1cccnc1 (stereo not shown): 290
C=CCN(Cc1cccnc1)c1ccc(Cl)cc1Cl: 750
Clc1ccc(N(Cc2ccccc2)Cc2cccnc2)c(Cl)c1: 310

Query compound follows.
Look up EC50 for this compound: CC(c1cccnc1)N(Cc1ccccc1)c1ccc(Cl)cc1 (stereo not shown)
1200
